Test system: SW-480 colon adenocarcinoma cells
Test: Apoptosis by DNA fragmentation (Cell Death Detection ELISA plus)
Type: cell-based, human
Conditions: SW-480 cells, 48 hrs; by software or estimated from effective concentration range
pEC50: −log10 of the molar value.
# pEC50 listing for each entry below
property.name: pEC50

- C#CCNC(=O)CC1=C(C)/C(=C/c2cc(OC)c(OC)c(OC)c2)c2ccc(F)cc21: 6.15
- COc1cc(/C=C2/C(C)=C(CC(=O)NCc3ccccc3Br)c3cc(F)ccc32)cc(OC)c1OC: 5.40
- COc1cc(OC)c(OC)cc1/C=C1/C(C)=C(CC(=O)NCc2ccccc2)c2cc(F)ccc21: 6.15
- COc1cc(/C=C2/C(C)=C(CC(=O)NCc3ccccc3F)c3cc(F)ccc32)cc(OC)c1OC: 6.49
- COc1ccc(/C=C2/C(C)=C(CC(=O)NCc3ccccc3)c3cc(F)ccc32)c(OC)c1OC: 6.52
- COc1ccccc1CNC(=O)CC1=C(C)/C(=C/c2cc(OC)c(OC)c(OC)c2)c2ccc(F)cc21: 6.52
- COc1cc(/C=C2/C(C)=C(CC(=O)NCc3cc(F)ccc3F)c3cc(F)ccc32)cc(OC)c1OC: 6.68
- COc1cc(/C=C2/C(C)=C(CC(=O)N(CCN(C)C)Cc3ccccc3)c3cc(F)ccc32)cc(OC)c1OC: 8.00
- C=CCNC(=O)CC1=C(C)/C(=C/c2cc(OC)c(OC)c(OC)c2)c2ccc(F)cc21: 6.64

###

Below is a list of entries, each paired with its recorded COX I % Inhibition (100 μM) value.
Molecular target: COX I (Ovis aries, UniProt P05979)
Construct: The COX was purified form ram seminal vesicles; from tissue; host or cells: ram seminal vesicles
Sequence (P05979 25-600): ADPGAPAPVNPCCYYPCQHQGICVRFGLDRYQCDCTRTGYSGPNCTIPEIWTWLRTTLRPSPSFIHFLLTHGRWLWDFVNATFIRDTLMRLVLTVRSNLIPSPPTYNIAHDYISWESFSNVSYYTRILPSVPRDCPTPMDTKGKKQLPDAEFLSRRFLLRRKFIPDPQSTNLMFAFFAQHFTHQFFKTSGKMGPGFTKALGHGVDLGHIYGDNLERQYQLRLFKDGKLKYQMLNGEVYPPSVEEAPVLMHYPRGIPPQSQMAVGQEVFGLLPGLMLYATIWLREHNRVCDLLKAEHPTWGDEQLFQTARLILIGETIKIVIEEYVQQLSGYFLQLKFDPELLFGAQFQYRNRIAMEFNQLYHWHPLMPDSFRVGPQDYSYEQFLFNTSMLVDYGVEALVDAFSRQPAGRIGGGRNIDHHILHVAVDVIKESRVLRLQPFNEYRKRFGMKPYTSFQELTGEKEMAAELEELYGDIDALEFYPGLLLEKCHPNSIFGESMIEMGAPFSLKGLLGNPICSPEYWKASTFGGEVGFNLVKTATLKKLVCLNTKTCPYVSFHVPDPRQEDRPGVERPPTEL
Assay: Cyclooxygenase (COX) inhibition, purified COX
Assay type: biochemical
Conditions: 100 μM test compound; purified COX from ram seminal vesicles, arachidonic acid 100 μM
property.name: COX I % Inhibition (100 μM)

- CCN(CC)C(=O)CC1=C(C)/C(=C/c2cc(OC)c(OC)c(OC)c2)c2ccc(F)cc21 [Example 24]: <25%
- COc1cc(/C=C2/C(C)=C(CC(=O)NCc3c(F)cccc3F)c3cc(F)ccc32)cc(OC)c1OC [Example 10]: <25%
- COc1cc(OC)c(/C=C2/C(C)=C(CC(=O)NCc3ccccc3)c3cc(F)ccc32)c(OC)c1 [Example 55]: <25%
- COc1cc(/C=C2/C(C)=C(CC(=O)NCC3CC3)c3cc(F)ccc32)cc(OC)c1OC [Example 30]: <25%
- COc1cc(/C=C2/C(C)=C(CC(=O)NCc3ccc(N(C)C)cc3)c3cc(F)ccc32)cc(OC)c1OC [Example 21]: 36.5%
- COc1cc(/C=C2/C(C)=C(CC(=O)NCc3cccnc3)c3cc(F)ccc32)cc(OC)c1OC [Example 49]: 25%
- COc1cc(/C=C2/C(C)=C(CC(=O)NCc3ccncc3)c3cc(F)ccc32)cc(OC)c1OC [Example 50]: 29.2%
- COc1cc(/C=C2/C(C)=C(CC(=O)NCc3ccc(Cl)c(Cl)c3)c3cc(F)ccc32)cc(OC)c1OC [Example 5]: <25%
- COc1cc(/C=C2/C(C)=C(CC(=O)Nc3ccccc3)c3cc(F)ccc32)cc(OC)c1OC [Example 22]: <25%
- COc1ccc(CNC(=O)CC2=C(C)/C(=C/c3cc(OC)c(OC)c(OC)c3)c3ccc(F)cc32)cc1 [Example 14]: <25%
- COc1cc(/C=C2/C(C)=C(CC(=O)NCc3cc(F)ccc3F)c3cc(F)ccc32)cc(OC)c1OC [Example 8]: <25%
- C=CCNC(=O)CC1=C(C)/C(=C/c2cc(OC)c(OC)c(OC)c2)c2ccc(F)cc21 [Example 28]: <25%
- COc1cc(CNC(=O)CC2=C(C)/C(=C/c3cc(OC)c(OC)c(OC)c3)c3ccc(F)cc32)cc(OC)c1 [Example 16]: <25%
- COc1ccc(CNC(=O)CC2=C(C)/C(=C/c3cc(OC)c(OC)c(OC)c3)c3ccc(F)cc32)c(OC)c1 [Example 19]: 33.3%
- COc1cc(/C=C2/C(C)=C(CC(=O)NCc3ccccn3)c3cc(F)ccc32)cc(OC)c1OC [Example 48]: <25%

###

Test system: SW-480 colon adenocarcinoma cells
Test: Apoptosis by DNA fragmentation (Cell Death Detection ELISA plus)
Type: cell-based, human
Conditions: SW-480 cells, 48 hrs; by software or estimated from effective concentration range
property.name: EC50 (µM)

• COc1ccc(CNC(=O)CC2=C(C)/C(=C/c3cc(OC)c(OC)c(OC)c3)c3ccc(F)cc32)c(OC)c1 = 7
• COc1cc(/C=C2/C(C)=C(CC(=O)N[C@H](C)c3ccccc3)c3cc(F)ccc32)cc(OC)c1OC = 3
• COc1cc(/C=C2/C(C)=C(CC(=O)NCc3ccccc3Cl)c3cc(F)ccc32)cc(OC)c1OC = 0.25
• COc1cc(/C=C2/C(C)=C(CC(=O)NCc3ccccn3)c3cc(F)ccc32)cc(OC)c1OC = 0.5
• COc1cc(/C=C2/C(C)=C(CC(=O)NCc3ccccc3)c3cc(F)ccc32)cc(OC)c1OC = 0.05
• COc1cc(/C=C2/C(C)=C(CC(=O)N(Cc3ccccc3)C(C)O)c3cc(F)ccc32)cc(OC)c1OC (stereo not drawn) = 5.7
• COc1cc(/C=C2/C(C)=C(CC(=O)Nc3ccccc3)c3cc(F)ccc32)cc(OC)c1OC = 5

###

Target: COX I (Ovis aries, UniProt P05979)
Construct: The COX was purified form ram seminal vesicles; from tissue; host or cells: ram seminal vesicles
Test: Cyclooxygenase (COX) inhibition, purified COX
Type: biochemical
Conditions: values marked *: 1000 μM test compound; purified COX from ram seminal vesicles
Marks after values point to notes of the source that are not given here.
property.name: COX I % Inhibition (values marked *)

* COc1cc(/C=C2/C(C)=C(CC(=O)N[C@H](O)Cc3ccccc3)c3cc(F)ccc32)cc(OC)c1OC | 56* %
* COc1cc(/C=C2/C(C)=C(CC(=O)N(Cc3ccccc3)c3ccccn3)c3cc(F)ccc32)cc(OC)c1OC | 35* %
* COc1cc(/C=C2/C(C)=C(CC(=O)NCCCc3ccccc3)c3cc(F)ccc32)cc(OC)c1OC | 34* %
* COc1cc(/C=C2/C(C)=C(CC(=O)N[C@@H](C)c3ccccc3)c3cc(F)ccc32)cc(OC)c1OC | 36* %

###

Molecular target: COX I (Ovis aries, UniProt P05979)
Construct: The COX was purified form ram seminal vesicles; from tissue; host or cells: ram seminal vesicles
Assay: Cyclooxygenase (COX) inhibition, purified COX
Type: biochemical
Conditions: values marked *: 1000 μM test compound; purified COX from ram seminal vesicles
Marks after values point to notes of the source that are not given here.
property.name: COX I % Inhibition (values marked *)

• COc1cc(/C=C2/C(C)=C(CC(=O)NCCCCc3ccccc3)c3cc(F)ccc32)cc(OC)c1OC = 59* %
• COc1cc(/C=C2/C(C)=C(CC(=O)N[C@H](C)c3ccccc3)c3cc(F)ccc32)cc(OC)c1OC = 49* %
• COc1ccc(CN(C(=O)CC2=C(C)/C(=C/c3cc(OC)c(OC)c(OC)c3)c3ccc(F)cc32)c2ccccn2)cc1 = 37* %
• COc1cc(/C=C2/C(C)=C(CC(=O)N(Cc3ccccc3)C(C)O)c3cc(F)ccc32)cc(OC)c1OC (stereo not shown) = 37* %
• COc1cc(/C=C2/C(C)=C(CC(=O)N[C@@H](O)Cc3ccccc3)c3cc(F)ccc32)cc(OC)c1OC = 98* %
• COc1cc(/C=C2/C(C)=C(CC(=O)NCc3ccccc3Br)c3cc(F)ccc32)cc(OC)c1OC = 49* %
• COc1cc(/C=C2/C(C)=C(CC(=O)NCc3ccccc3N)c3cc(F)ccc32)cc(OC)c1OC = 31* %

###

Molecular target: COX I (Ovis aries, UniProt P05979)
Construct: The COX was purified form ram seminal vesicles; from tissue; host or cells: ram seminal vesicles
Assay: Cyclooxygenase (COX) inhibition, purified COX
Format: biochemical
Details: 100 μM test compound; purified COX from ram seminal vesicles, arachidonic acid 100 μM
property.name: COX I % Inhibition (100 μM)

* C#CCNC(=O)CC1=C(C)/C(=C/c2cc(OC)c(OC)c(OC)c2)c2ccc(F)cc21 | <25%
* COc1cc(/C=C2/C(C)=C(CC(=O)NCc3ccc(S(N)(=O)=O)cc3)c3cc(F)ccc32)cc(OC)c1OC | 36.5%
* COc1cc(/C=C2/C(C)=C(CC(=O)NCc3ccc(F)cc3F)c3cc(F)ccc32)cc(OC)c1OC | <25%
* COc1cc(/C=C2/C(C)=C(CC(=O)NCc3cccc(I)c3)c3cc(F)ccc32)cc(OC)c1OC | <25%
* COc1ccc(CNC(=O)CC2=C(C)/C(=C/c3cc(OC)c(OC)c(OC)c3)c3ccc(F)cc32)cc1OC | <25%
* COc1cc(/C=C2\C(C)=C(CC(=O)NCc3ccccc3)c3cc(F)ccc32)cc(OC)c1OC | <25%
* COc1cc(/C=C2/C(C)=C(CC(=O)NCc3cccc(Cl)c3)c3cc(F)ccc32)cc(OC)c1OC | <35%
* COc1cc(/C=C2/C(C)=C(CC(=O)NC(C)(C)C)c3cc(F)ccc32)cc(OC)c1OC | 25%
* COc1cc(/C=C2/C(C)=C(CC(=O)Nc3ccc(Br)cc3)c3cc(F)ccc32)cc(OC)c1OC | <25%
* COc1cc(/C=C2/C(C)=C(CC(=O)NCc3cccc(F)c3)c3cc(F)ccc32)cc(OC)c1OC | <25%
* COc1cc(/C=C2/C(C)=C(CC(=O)N(C3CCCCC3)C3CCCCC3)c3cc(F)ccc32)cc(OC)c1OC | 28.1%
* COc1cc(/C=C2/C(C)=C(CC(=O)NCc3ccco3)c3cc(F)ccc32)cc(OC)c1OC | <25%
* COc1cc(/C=C2/C(C)=C(CC(=O)NCc3cc(F)cc(C(F)(F)F)c3)c3cc(F)ccc32)cc(OC)c1OC | <25%
* COc1cc(/C=C2/C(C)=C(CC(=O)NCc3ccccc3)c3cc(F)ccc32)cc(OC)c1OC | <25%
* COc1ccccc1CNC(=O)CC1=C(C)/C(=C/c2cc(OC)c(OC)c(OC)c2)c2ccc(F)cc21 | <25%
